Let's look at some compounds and their measured IC50.
# Tested On: UniProtKB Q9P1W9
# Sequence (Q9P1W9 whole entry): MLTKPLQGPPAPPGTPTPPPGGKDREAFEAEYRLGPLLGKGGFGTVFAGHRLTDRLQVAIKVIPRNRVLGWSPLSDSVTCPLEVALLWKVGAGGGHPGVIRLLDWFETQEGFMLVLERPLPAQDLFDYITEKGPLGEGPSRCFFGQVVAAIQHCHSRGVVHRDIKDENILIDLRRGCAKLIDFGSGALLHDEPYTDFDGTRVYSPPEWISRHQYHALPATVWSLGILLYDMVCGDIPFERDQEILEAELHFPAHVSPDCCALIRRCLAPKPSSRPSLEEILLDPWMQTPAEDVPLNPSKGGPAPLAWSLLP

Before answering, review these 2 worked examples.
| Compound | Tested On | Value Reported |
| --- | --- | --- |
| C[C@@H]1C[C@H](N)C[C@H](c2ccncc2NC(=O)c2ccc(F)c3cc(N4CCCCO4)cnc23)C1 [Example 109] | UniProtKB Q9P1W9 | ≤ 100 nM |
| C[C@@H]1C[C@H](N)C[C@H](c2ccncc2NC(=O)c2cccc3cc(N4CCCCC4C(F)F)cnc23)C1 (stereo partly drawn) [Example 71] | UniProtKB Q9P1W9 | 100 to 1000 nM |

Okay, now this compound:
Entry C[C@@H]1C[C@H](N)C[C@H](c2ccncc2NC(=O)c2cccc3cc(N4CCC[C@H]4C)cnc23)C1 [Example 68] under UniProtKB Q9P1W9 had IC50 of ≤ 100 nM
